Hey, just so you know, these numbers are from the kinase profiling compilation of Christmann-Franck et al. (2016).

Molecular target: YES1 (human)
Experiment: KINOMEscan competition binding
Settings: compound 10.0 µM
Quick reference for kinase still bound, per cent of control among some molecules
# unit: % | format: bare number

{"columns": ["Molecule", "Experimental system", "kinase still bound, per cent of control / %"],
 "data": [
  ["Cc1ccc(C(=O)Nc2cccc(C(F)(F)F)c2)cc1Nc1cncc(C(N)=O)c1", "YES1 (human)", 100],
  ["CCOc1cc2ncc(C#N)c(Nc3ccc(OCc4ccccn4)c(Cl)c3)c2cc1NC(=O)/C=C/CN(C)C", "YES1 (human)", 26]
]}

Give the measured kinase still bound, per cent of control for `C=CC(=O)Nc1cccc(Oc2nc(Nc3ccc(N4CCN(C)CC4)cc3OC)ncc2Cl)c1`
100
